# target of assay: EGFR L858R/T790M/C797S mutant enzyme (Homo sapiens (Human), UniProt P00533, C797S/L858R/T790M)
# Sequence (P00533 25-1210 T790M/C797S/L858R): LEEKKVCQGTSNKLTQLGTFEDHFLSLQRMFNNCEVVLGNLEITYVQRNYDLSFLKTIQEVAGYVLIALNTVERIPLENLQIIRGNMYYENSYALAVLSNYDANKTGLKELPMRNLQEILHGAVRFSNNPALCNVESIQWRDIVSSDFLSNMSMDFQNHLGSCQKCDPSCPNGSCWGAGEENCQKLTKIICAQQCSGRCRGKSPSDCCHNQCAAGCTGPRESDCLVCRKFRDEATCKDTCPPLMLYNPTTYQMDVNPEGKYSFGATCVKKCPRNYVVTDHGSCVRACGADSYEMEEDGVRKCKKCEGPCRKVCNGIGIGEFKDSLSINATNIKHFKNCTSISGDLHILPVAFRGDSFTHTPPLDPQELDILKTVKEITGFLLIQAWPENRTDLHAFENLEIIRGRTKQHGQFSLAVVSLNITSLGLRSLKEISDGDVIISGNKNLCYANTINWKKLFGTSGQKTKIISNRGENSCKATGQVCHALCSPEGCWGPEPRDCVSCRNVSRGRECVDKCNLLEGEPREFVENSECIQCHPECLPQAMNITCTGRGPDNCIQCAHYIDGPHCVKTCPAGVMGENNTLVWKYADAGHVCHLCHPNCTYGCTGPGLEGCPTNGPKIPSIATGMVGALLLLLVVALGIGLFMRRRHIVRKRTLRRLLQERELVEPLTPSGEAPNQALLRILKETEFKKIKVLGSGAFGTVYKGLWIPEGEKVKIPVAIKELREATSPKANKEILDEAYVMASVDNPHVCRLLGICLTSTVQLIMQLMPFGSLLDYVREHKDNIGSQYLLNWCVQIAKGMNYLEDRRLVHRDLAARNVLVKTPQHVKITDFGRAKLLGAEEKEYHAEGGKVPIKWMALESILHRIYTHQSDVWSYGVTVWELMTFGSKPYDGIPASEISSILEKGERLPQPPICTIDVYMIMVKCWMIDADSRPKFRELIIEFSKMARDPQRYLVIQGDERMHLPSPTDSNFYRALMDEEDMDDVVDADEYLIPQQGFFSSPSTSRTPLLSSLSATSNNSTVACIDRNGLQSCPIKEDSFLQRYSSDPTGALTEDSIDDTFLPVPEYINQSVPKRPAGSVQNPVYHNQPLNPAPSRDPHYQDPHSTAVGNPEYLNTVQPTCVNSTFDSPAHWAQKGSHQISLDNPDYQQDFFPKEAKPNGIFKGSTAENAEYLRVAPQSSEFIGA
# assay explanation: EGFR mutant enzyme inhibition, HTRF system (Cisbio)
# Type: biochemical
# cond: ATP 1 mM, 37° C. for 2 hours
# Method: In order to evaluate the inhibitory activity of the compound represented by formula 1 according to the present invention against EGFR mutation, the following experiment was performed. The activity of the compound of the present invention against EGFR mutant enzyme was measured using the HTRF system of Cisbio Co. As an EGFR L858R/T790M/C797S mutant enzyme, a protein provided by SignalChem was purchased and used as an enzyme source. […]
measured metric: pIC50
# pIC50: negative log10 of molar concentration; output just the value

Check out these entries, answers already filled in.
CN(C)C1CCN(c2ccc(-c3ccc4c(c3)C(=O)N([C@@H](c3cc5ccccc5[nH]3)c3cc(Cl)ccc3O)C4)cc2)CC1 : 5.66
O=C1c2ccccc2CN1[C@H](c1cc2ccccc2[nH]1)c1cc(F)ccc1O : 5.48

For O=C1c2ccccc2CN1C(c1nc2ccc(F)cc2[nH]1)c1ccccc1O (stereo not drawn) , what is its reported pIC50? 5.66

For `Nc1ccc(-c2ccc3c(c2)C(=O)N([C@@H](c2cc4ccccc4[nH]2)c2cc(Cl)ccc2O)C3)cc1` , what is its reported pIC50? 6.92

For `O=C1c2cc(C3=CCNCC3)ccc2CN1[C@@H](c1cc2ccccc2[nH]1)c1cc(Cl)ccc1O` , what is its reported pIC50? 5.62

For `CN1CCN(c2ccc(-c3ccc4c(c3)C(=O)N([C@@H](c3cc5ccccc5[nH]3)c3cc(F)ccc3O)C4)cc2)CC1` , what is its reported pIC50? 6.68

For `O=C1c2cc(-c3ccc(N4CCCC4)cc3)ccc2CN1[C@@H](c1cc2ccccc2[nH]1)c1cc(F)ccc1O` , what is its reported pIC50? 6.10

For O=C1c2cc(-c3ccc(-c4ccncc4)cc3)ccc2CN1C(c1nc2ccccc2[nH]1)c1cc(Cl)ccc1O (stereo not drawn) , what is its reported pIC50? 6.35

For Nc1ccc(-c2ccc3c(c2)C(=O)N(C(c2nc4ccccc4[nH]2)c2ccccc2O)C3)cc1 (stereo not drawn) , what is its reported pIC50? 6.30

For `O=C1c2cc(-c3ccc(N4CCN(C5CCNCC5)CC4)cc3)ccc2CN1[C@@H](c1cc2ccccc2[nH]1)c1cc(F)ccc1O` , what is its reported pIC50? 6.52

For Nc1ccc(-c2ccc3c(c2)C(=O)N(C(c2nc4ccccc4[nH]2)c2cc(F)ccc2O)C3)cc1 (stereo not drawn) , what is its reported pIC50? 7.01

For `O=C1c2cc(-c3ccc(N4CCNCC4)cc3)ccc2CN1[C@@H](c1cc2cccnc2[nH]1)c1cc(F)ccc1O` , what is its reported pIC50? 7.16

----------
# target of assay: EGFR L858R/T790M/C797S mutant enzyme (Homo sapiens (Human), UniProt P00533, C797S/L858R/T790M)
# assay explanation: EGFR mutant enzyme inhibition, HTRF system (Cisbio)
# cond: ATP 1 mM, 37° C. for 2 hours
measured metric: IC50 (nM)
Report the figure in nM without appending any unit label.

Check out these entries, answers already filled in.
O=C1c2cc(-c3ccc(N4CCNCC4)cc3)ccc2CN1C(c1nc2ccccc2[nH]1)c1ccccc1O (stereo not drawn) : 91
O=C1c2cc(-c3ccc(N4CCN(C5CCNCC5)CC4)cc3)ccc2CN1[C@@H](c1cc2ccccc2[nH]1)c1cc(Cl)ccc1O : 260
N[C@@H]1CCN(c2ccc(-c3ccc4c(c3)C(=O)N([C@@H](c3cc5ccccc5[nH]3)c3cc(F)ccc3O)C4)cc2)C1 : 56
CN1CCC(N2CCN(c3ccc(-c4ccc5c(c4)C(=O)N([C@@H](c4cc6ccccc6[nH]4)c4cc(F)ccc4O)C5)cc3)CC2)CC1 : 50
O=C1c2cc(C3=CCNCC3)ccc2CN1C(c1nc2ccccc2[nH]1)c1cc(F)ccc1O (stereo not drawn) : 2900
Cc1ccc(O)c([C@H](c2cc3ccccc3[nH]2)N2Cc3ccccc3C2=O)c1 : 1600
Nc1ccc(-c2ccc3c(c2)C(=O)N([C@@H](c2cc4ccccc4[nH]2)c2cc(F)ccc2O)C3)cc1 : 280
CN1CCN(C2CCN(c3ccc(-c4ccc5c(c4)C(=O)N([C@@H](c4cc6ccccc6[nH]4)c4cc(F)ccc4O)C5)cc3)CC2)CC1 : 40

For `CN1CCC(N2CCN(c3ccc(-c4ccc5c(c4)C(=O)N([C@@H](c4cc6ccccc6[nH]4)c4cc(Cl)ccc4O)C5)cc3)CC2)CC1` , what is its reported IC50? 410

For `O=C1c2cc(-c3ccc(N4CCOCC4)cc3)ccc2CN1[C@@H](c1cc2ccccc2[nH]1)c1cc(Cl)ccc1O` , what is its reported IC50? 110

For O=C1c2ccccc2CN1C(c1nc2ccccc2[nH]1)c1ccccc1O (stereo not drawn) , what is its reported IC50? 1000

For O=C1c2cc(-c3ccc(N4CCNCC4)cc3)ccc2CN1C(c1nc2ccccc2[nH]1)c1cc(Cl)ccc1O (stereo not drawn) , what is its reported IC50? 150

For `Nc1ccc(-c2ccc3c(c2)C(=O)N([C@@H](c2cc4ccccc4[nH]2)c2ccccc2O)C3)cc1` , what is its reported IC50? 160

----------
# target of assay: EGFR L858R/T790M/C797S mutant enzyme (Homo sapiens (Human), UniProt P00533, C797S/L858R/T790M)
# assay explanation: EGFR mutant enzyme inhibition, HTRF system (Cisbio)
# cond: ATP 1 mM, 37° C. for 2 hours
Listing of recorded log10 IC50 by entry.
// stored as log10 of IC50 expressed in nM

O=C1c2cc(-c3ccc(N4CCNCC4)cc3)ccc2CN1[C@@H](c1cc2ccccc2[nH]1)c1ccccc1O : 1.26
O=C1c2cc(-c3ccc(N4CCNCC4)cc3)ccc2CN1[C@@H](c1cc2ccccc2[nH]1)c1cc(Cl)ccc1O : 1.08
O=C1c2cc(-c3ccc(N4CCNCC4)cc3)ccc2CN1[C@@H](c1cc2cccnc2[nH]1)c1cc(Cl)ccc1O : 2.62

For O=C1c2ccccc2CN1C(c1nc2ccccc2[nH]1)c1cc(Cl)ccc1O (stereo not drawn) , what is its reported log10 IC50? 2.23

For `N[C@H]1CCN(c2ccc(-c3ccc4c(c3)C(=O)N([C@@H](c3cc5ccccc5[nH]3)c3cc(F)ccc3O)C4)cc2)C1` , what is its reported log10 IC50? 1.65

For `O=C1c2cc(-c3ccc(N4CCNCC4)cc3)ccc2CN1[C@H](c1cc2ccccc2[nH]1)c1cc(F)ccc1O` , what is its reported log10 IC50? 2.08

For `O=C1c2cc(-c3ccc(N4CCCC4)cc3)ccc2CN1[C@@H](c1cc2ccccc2[nH]1)c1cc(Cl)ccc1O` , what is its reported log10 IC50? 2.40

For O=C1c2ccccc2CN1C(c1nc2cc(Cl)c(Cl)cc2[nH]1)c1ccccc1O (stereo not drawn) , what is its reported log10 IC50? 3.85

----------
# target of assay: EGFR L858R/T790M/C797S mutant enzyme (Homo sapiens (Human), UniProt P00533, C797S/L858R/T790M)
# assay explanation: EGFR mutant enzyme inhibition, HTRF system (Cisbio)
# cond: ATP 1 mM, 37° C. for 2 hours
measured metric: log10(IC50) (log10 of the value in nM)
// stored as log10 of IC50 expressed in nM

CN1CCN(C2CCN(c3ccc(-c4ccc5c(c4)C(=O)N([C@@H](c4cc6ccccc6[nH]4)c4cc(Cl)ccc4O)C5)cc3)CC2)CC1 [Example 58] : 3.57
O=C1c2ccccc2CN1C(c1nc2ccccc2[nH]1)c1cc(F)ccc1O (stereo not drawn) [Example 7] : 2.85
O=C1c2cc(C3=CCNCC3)ccc2CN1C(c1nc2ccccc2[nH]1)c1ccccc1O (stereo not drawn) [Example 15] : 3.94
O=C1c2cc(-c3ccc(-c4ccncc4)cc3)ccc2CN1[C@@H](c1cc2ccccc2[nH]1)c1cc(F)ccc1O [Example 47] : 1.93
O=C1c2ccccc2CN1[C@@H](c1cc2ccccc2[nH]1)c1cc(Cl)ccc1O [Example 26] : 2.28

For O=C1c2cc(-c3ccc(N4CCNCC4)cc3)ccc2CN1[C@@H](c1cc2ccccc2[nH]1)c1cc(F)ccc1O [Example 32] , what is its reported log10(IC50)? 0.90

For O=C1c2cc(-c3ccc(N4CCC(N5CCNCC5)CC4)cc3)ccc2CN1[C@@H](c1cc2ccccc2[nH]1)c1cc(Cl)ccc1O [Example 60] , what is its reported log10(IC50)? 2.28

For Nc1ccc(-c2ccc3c(c2)C(=O)N(C(c2nc4ccccc4[nH]2)c2cc(Cl)ccc2O)C3)cc1 (stereo not drawn) [Example 14] , what is its reported log10(IC50)? 3.11

For O=C1c2cc(C3=CCNCC3)ccc2CN1[C@@H](c1cc2ccccc2[nH]1)c1cc(F)ccc1O [Example 35] , what is its reported log10(IC50)? 2.86

For O=C1c2cc(C3=CCNCC3)ccc2CN1[C@@H](c1cc2ccccc2[nH]1)c1ccccc1O [Example 34] , what is its reported log10(IC50)? 3.46

For CN1CCN(c2ccc3c(c2)C(=O)N([C@@H](c2cc4ccccc4[nH]2)c2cc(F)ccc2O)C3)CC1 [Example 38] , what is its reported log10(IC50)? 3.88

For O=C1c2cc(-c3ccc(-c4ccncc4)cc3)ccc2CN1C(c1nc2ccccc2[nH]1)c1cc(F)ccc1O (stereo not drawn) [Example 41] , what is its reported log10(IC50)? 2.34

For CN(C)C1CCN(c2ccc(-c3ccc4c(c3)C(=O)N([C@@H](c3cc5ccccc5[nH]3)c3cc(F)ccc3O)C4)cc2)CC1 [Example 61] , what is its reported log10(IC50)? 1.82

For N[C@@H]1CCN(c2ccc(-c3ccc4c(c3)C(=O)N([C@@H](c3cc5ccccc5[nH]3)c3cc(Cl)ccc3O)C4)cc2)C1 [Example 70] , what is its reported log10(IC50)? 2.86

For CN1CCN(c2ccc(-c3ccc4c(c3)C(=O)N([C@@H](c3cc5ccccc5[nH]3)c3cc(Cl)ccc3O)C4)cc2)CC1 [Example 44] , what is its reported log10(IC50)? 2.28
